tested on: DMS 273 small cell lung; experiment: NCI tumour cell line growth inhibition, 48 h
# TGI listing for each entry below

CCCCCCCCCCCCCCCCCC(CCCCCCCCCCCCCCCCC)OP(=O)(O)O | > 100 µM
COC(=O)[C@@H]1[C@H](O)[C@H](C)[C@H](O)[C@@](C)(O)/C=C\C=C(C)C(=O)Nc2c(C)c(OC(C)=O)c3c(c2O)C(=O)C(C)=C2OCOC(=C23)C(C)=C[C@@](C)(O)[C@H](O)[C@@H](C)[C@H]1OC(C)=O | > 100 µM
CC(C)=CC(=O)C1c2cccc(O)c2C(=O)c2c(O)cc(C)cc21 (stereo not given) | 9.46 µM
CN(C)C(=N)c1ccccc1 | > 100 µM
Cn1cnc([N+](=O)[O-])c1Sc1nnc(-c2cccnc2)n1C | > 100 µM

Input: So what does the record say about TGI for [N-]=[N+]=Nc1cc(=O)oc2ccccc12 ?
Output: > 100 µM

Input: Field request: TGI | item: CCCCCCCCCCCOc1ccc(C(=O)C(=O)c2ccc(OCCCCCCCCCCC)c(OCCCCCCCCCCC)c2)cc1OCCCCCCCCCCC
Output: > 100 µM

These entries and their values trace back to PubChem BioAssay (NCI).
